method.description: Drug concentration in CD-1 mouse plasma at 3 mg/kg, ip administered for 90 mins
Assay type: ADME, organism-based
recorded.endpoint: concentration at 1.5 h

smiles_string=C[C@H](CC[C@](C)(O)C(F)(F)F)[C@H]1CC[C@H]2[C@@H]3CC=C4C[C@@](C)(O)CC[C@]4(C)[C@H]3CC[C@]12C observed_value="0.577 µg/mL"

###

measurement.target: Cytochrome P450 3A4 (Homo sapiens, UniProt P08684)
Sequence (P08684 whole entry): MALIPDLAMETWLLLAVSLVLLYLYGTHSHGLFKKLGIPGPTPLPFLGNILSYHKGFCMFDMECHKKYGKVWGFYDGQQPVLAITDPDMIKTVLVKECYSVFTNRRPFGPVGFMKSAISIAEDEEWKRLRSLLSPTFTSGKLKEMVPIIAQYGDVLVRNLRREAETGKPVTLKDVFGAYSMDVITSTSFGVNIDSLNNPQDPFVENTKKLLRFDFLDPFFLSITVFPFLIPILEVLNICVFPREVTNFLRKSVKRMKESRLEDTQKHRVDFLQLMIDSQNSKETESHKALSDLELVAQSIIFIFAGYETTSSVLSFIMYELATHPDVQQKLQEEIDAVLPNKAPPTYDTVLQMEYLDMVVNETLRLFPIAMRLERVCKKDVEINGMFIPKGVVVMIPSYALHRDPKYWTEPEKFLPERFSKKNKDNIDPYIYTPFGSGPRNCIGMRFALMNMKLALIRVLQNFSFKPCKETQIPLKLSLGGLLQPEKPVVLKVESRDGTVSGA
recorded.endpoint: IC50

smiles_string=C[C@H](CC[C@](C)(O)C(F)(F)F)[C@H]1CC[C@H]2[C@@H]3CC=C4C[C@@](C)(O)CC[C@]4(C)[C@H]3CC[C@]12C recorded_endpoint=IC50 observed_value="> 100 µM"

###

method.description: Ratio of drug concentration in ip dosed CD-1 mouse brain to plasma after 1 hr by LC-MS/MS analysis
Type: ADME, organism-based
condition.label: brain and plasma
recorded.endpoint: Kp at 1 h

smiles_string=C[C@H](CC[C@](C)(O)C(F)(F)F)[C@H]1CC[C@H]2[C@@H]3CC=C4C[C@@](C)(O)CC[C@]4(C)[C@H]3CC[C@]12C recorded_endpoint="Kp at 1 h" observed_value=0.2
smiles_string=CC[C@](C)(O)CC[C@@H](C)[C@H]1CC[C@H]2[C@@H]3CC=C4C[C@@](C)(O)CC[C@]4(C)[C@H]3CC[C@]12C recorded_endpoint="Kp at 1 h" observed_value=0.2
smiles_string=CC(C)[C@@](C)(O)CC[C@@H](C)[C@H]1CC[C@H]2[C@@H]3CC=C4C[C@@](C)(O)CC[C@]4(C)[C@H]3CC[C@]12C recorded_endpoint="Kp at 1 h" observed_value=0.2
smiles_string=C[C@H](CCC(C)(C)O)[C@H]1CC[C@H]2[C@@H]3CC=C4C[C@@](C)(O)CC[C@]4(C)[C@H]3CC[C@]12C recorded_endpoint="Kp at 1 h" observed_value=0.6

###

method.description: Half life in po dosed rat
Format: ADME, organism-based
condition.label: in vivo
recorded.endpoint: half-life (h)

smiles_string=C[C@H](CCC(C)(C)O)[C@H]1CC[C@H]2[C@@H]3CC=C4C[C@@](C)(O)CC[C@]4(C)[C@H]3CC[C@]12C display_unit=h op== observed_value=1.7
smiles_string=CC(C)[C@@H](O)CC[C@@H](C)[C@H]1CC[C@H]2[C@@H]3CC=C4C[C@@H](O)CC[C@]4(C)[C@H]3CC[C@]12C display_unit=h op=< observed_value=0.6
smiles_string=C[C@H](CC[C@@H](O)C(F)(F)F)[C@H]1CC[C@H]2[C@@H]3CC=C4C[C@@](C)(O)CC[C@]4(C)[C@H]3CC[C@]12C display_unit=h op== observed_value=5.75

###

method.description: Clearance in Sprague-Dawley rat by LC-MS/MS analysis
Type: ADME
condition.label: in vivo
The following compounds are listed with their measured clearance values.
recorded.endpoint: clearance

smiles_string=C[C@H](CC[C@](C)(O)C(F)(F)F)[C@H]1CC[C@H]2[C@@H]3CC=C4C[C@@](C)(O)CC[C@]4(C)[C@H]3CC[C@]12C observed_value="0.6 L/h/kg"
smiles_string=C[C@H](CCC(C)(C)O)[C@H]1CC[C@H]2[C@@H]3CC=C4C[C@@](C)(O)CC[C@]4(C)[C@H]3CC[C@]12C observed_value="1.8 L/h/kg"
smiles_string=CC(C)[C@@](C)(O)CC[C@@H](C)[C@H]1CC[C@H]2[C@@H]3CC=C4C[C@@](C)(O)CC[C@]4(C)[C@H]3CC[C@]12C observed_value="1.9 L/h/kg"
smiles_string=CC[C@](C)(O)CC[C@@H](C)[C@H]1CC[C@H]2[C@@H]3CC=C4C[C@@](C)(O)CC[C@]4(C)[C@H]3CC[C@]12C observed_value="2.2 L/h/kg"
